Provenance of the data: patent US20240101570A1

Test system: HCT116 WT cells
Experiment: HCT116 WT cell proliferation / viability (CellTiter-Glo, 6 days)
Type: cell-based
Conditions: Homo sapiens, HCT-116, 144 h, HCT116 WT cells, 6 days, CellTiter-Glo; read-out: HCT-116 WT IC50
Please respond with Yes when measured IC50 is strictly beneath 3000 nM, and with No in all other cases.

Answered cases to consult:
{"columns": ["Molecular string", "Label value"],
 "data": [
  ["Cn1ncc2c(N)nc3ccc(C(=O)N(Cc4ccc(C(F)(F)F)nn4)C4CC4)cc3c21", "No"],
  ["CC(C)N(Cc1ccc(C2CC2)nc1)C(=O)c1cc2c3c(c(N)nc2cc1F)COC3", "Yes"],
  ["CCN(C(=O)c1ccc2nc(N)c3c(c2c1)CO[C@@H]3C)[C@H](C)c1ccc(C(F)F)cn1", "Yes"]
]}

Take the compound `COC[C@@H](C)N(Cc1ccc(Cl)nn1)C(=O)c1cc2c3c(c(N)nc2cn1)[C@@H](C)OC3` and say whether its IC50 is less than 3000 nM.
No

Take the compound `CCN(Cc1ccc(S(F)(F)(F)(F)F)cc1)C(=O)c1cc2c(cn1)nc(N)c1cnn(C)c12` and say whether its IC50 is less than 3000 nM.
Yes

Take the compound `CCOc1ccc(CN(C(=O)c2ccc3nc(N)c4c(c3c2)CO[C@@H]4C)C23CC(C2)C3)nn1` and say whether its IC50 is less than 3000 nM.
Yes

Take the compound `CCN(C(=O)c1cc2c3c(c(N)nc2cn1)COC3)[C@H](C)c1ccc(C(F)F)cn1` and say whether its IC50 is less than 3000 nM.
Yes

====

Test system: HCT116 WT cells
Assay: HCT116 WT cell proliferation / viability (CellTiter-Glo, 6 days)
Type: cell-based
Conditions: Homo sapiens, HCT-116, 144 h, HCT116 WT cells, 6 days, CellTiter-Glo; read-out: HCT-116 WT IC50
Endpoint: pIC50
One number for each entry, as −log10 of the molar value.

{"columns": ["Molecule", "pIC50"],
 "data": [
  ["CN(Cc1ccc(S(F)(F)(F)(F)F)cc1)C(=O)c1cc2c3c(c(N)nc2cn1)COC3 [Example 511]", 5.31],
  ["Nc1nc2ccc(C(=O)N(Cc3ccc(C(F)(F)F)cn3)Cc3ncccn3)cc2c2ccsc12 [Example 636]", 5.52],
  ["CC(C)N(Cc1ccc(C(F)(F)F)cn1)C(=O)c1cc2c(cc1F)nc(N)c1cnn(C)c12 [Example 805]", 6.92],
  ["C[C@H](c1ccc(F)cn1)N(C)C(=O)c1cc2c(cc1F)nc(N)c1cnn(C)c12 (single isomer, unassigned) [Example 873]", 5.14]
]}

Working through the 5 molecules below one at a time, give pIC50 for each.
1. Cn1cc(N(Cc2ccc(C(F)(F)F)cn2)C(=O)c2cc3c(cc2F)nc(N)c2c3cnn2C)cn1 [Example 506]
2. CC(C)N(Cc1ccc(C(F)(F)F)cn1)C(=O)c1cc2c3c(c(N)nc2cc1F)COC3 [Example 345]
3. CC(C)N(Cc1ccc(C2CC2)cn1)C(=O)c1cc2c3c(c(N)nc2cn1)[C@@H](C)OC3 [Example 406]
4. CC(C)N(Cc1cnc(C(F)(F)F)cn1)C(=O)c1cc2c3c(c(N)nc2cc1Cl)COC3 [Example 499]
5. CC(C)CN(Cc1ccc(C(F)(F)F)cn1)C(=O)c1cc2c3c(c(N)nc2cn1)COC3 [Example 620]

1: 6.43; 2: 6.68; 3: 5.38; 4: 5.38; 5: 5.45

Working through the 3 molecules below one at a time, give pIC50 for each.
1. CN(Cc1ccc(C(F)(F)F)c(F)c1)C(=O)c1ccc2nc(N)c3cnn(C)c3c2c1 [Example 526]
2. Nc1nc2ccc(C(=O)N(Cc3ccc(Br)nn3)CC3CC3)cc2c2c1COC2 [Example 674]
3. C[C@H](c1ncccn1)N(Cc1ccc(C(F)(F)F)cn1)C(=O)c1ccc2nc(N)c3c(c2c1)CCC3 [Example 610]

1: 5.16; 2: 5.59; 3: 6.87

Working through the 2 molecules below one at a time, give pIC50 for each.
1. N#Cc1ccc(CN(CC2(C#N)CC2)C(=O)c2ccc3nc(N)c4c(c3c2)COC4)nc1 [Example 457]
2. CC(C)CN(Cc1ccc(C(F)(F)F)cn1)C(=O)c1ccc2nc(N)c3c(c2c1)COC3 [Example 613]

1: 5.50; 2: 6.12

Working through the 6 molecules below one at a time, give pIC50 for each.
1. COC[C@@H](C)N(Cc1ccc(Br)nn1)C(=O)c1ccc2nc(N)c3sccc3c2c1 [Example 643]
2. CN(Cc1ccc(-c2cnn(C(F)(F)F)c2)cn1)C(=O)c1cc2c(cc1F)nc(N)c1cnn(C)c12 [Example 789]
3. CC1OCc2c1c(N)nc1ccc(C(=O)N(Cc3ccc(C#N)cn3)C3CCCC3C#N)cc21 (stereo not drawn) [Example 898]
4. CC(C)N(Cc1ccc(C(F)(F)F)cn1)C(=O)c1ccc2nc(N)c3c(c2c1)COC3 [Example 451]
5. CC[C@H](c1ccc(C(F)(F)F)cn1)N(C)C(=O)c1cc2c3c(c(N)nc2cn1)COC3 (single isomer, unassigned) [Example 849]
6. CCN(C(=O)c1cc2c3c(c(N)nc2cc1Cl)COC3)[C@H](C)c1ccc(C(F)(F)F)cn1 [Example 738]

[5.79, 5.16, 6.54, 5.36, 4.61, 6.37]
